system: HOP-92 NSCLC; test: NCI-60 one-dose screen, 48 h; details: 10 µM unless noted
This is part of a sample that, as a whole, favours compounds with a hit. Of some 83,000 tested, about 20% had one in any assay. Active and inactive are the calls of the source. How the source made its calls: active means growth percent below 10; inactive means the rest.
Form entry, call: pick from TRUE for active, FALSE for inactive

Exercise: Which outcome did this test record for the compound `CNC(=O)c1cc(N2CCc3cc(NC(=O)Nc4ccc(N5CCN(C)CC5)c(C(F)(F)F)c4)ccc32)ccn1` ?
Solution: FALSE

Exercise: Which outcome did this test record for the compound CC1CC(=O)C2=C(C1)Nc1ccc(Br)cc1CC2c1c[nH]c2ccc(Br)cc12 (centres undefined) ?
Solution: FALSE

Exercise: Which outcome did this test record for the compound `Cn1cc(-c2nn3cc(-c4ccncc4)nc3s2)c2cc(Br)ccc21` ?
Solution: TRUE

Exercise: Which outcome did this test record for the compound `Brc1cccc(-c2cc(-c3cnc4c(c3)OCCO4)n[nH]2)c1` ?
Solution: FALSE

Exercise: Which outcome did this test record for the compound `COc1ccc(/C(=N\N=C(N)N)c2ccc(Cl)cc2)cc1OC` ?
Solution: TRUE

Exercise: Which outcome did this test record for the compound `O=C(NCCNc1cc(-c2cn(-c3ccccc3)nc2-c2cccc(O)c2)ccn1)Nc1cc(C(F)(F)F)cc(C(F)(F)F)c1` ?
Solution: FALSE

Exercise: Which outcome did this test record for the compound C#CCOc1ccccc1C(OC(=O)c1ccccc1)C(=O)NC(C)(C)C(C)(C)C (centres undefined) ?
Solution: FALSE

Exercise: Which outcome did this test record for the compound `O=C(Nc1ccc(Cl)c(C(F)(F)F)c1)Nc1ccc2oc(=O)ccc2c1` ?
Solution: TRUE

Exercise: Which outcome did this test record for the compound `O=C1[C@@H]2Cc3c([nH]c4ccccc34)[C@@H](c3ccc(Cl)cc3)N2C(=O)CN1C1CCN(Cc2c(F)cccc2F)CC1` ?
Solution: TRUE

====

System: SK-MEL-2 melanoma
Experiment: NCI-60 one-dose screen, 48 h
Details: 10 µM unless noted
Procedure: Growth inhibition of the SK-MEL-2 human tumor cell line is measured as a screen for anti-cancer activity. Cells are grown in 96 well plates and exposed to the test compound for 48 hours. Compounds are tested at a single concentration, which is 10^-5 M for most compounds. The reported endpoint is percent growth (GI% or GIPRCNT), where numbers from 0 - 100% represent growth inhibition, and numbers from -100% - 0 represent cell death. For example, a value of 40 represents 60% growth inhibition. […]
The panel holds about 83,000 compounds, 20% with a hit somewhere; the sample as a whole holds those more often. The source made the active and inactive calls. How the source made its calls: active means growth percent below 10; inactive means the rest.
Form entry, call: pick from true (1) (active), false (0) (inactive)

Exercise: Which outcome did this test record for the molecule `CSc1ccc(/C(=N/N=C(N)N)c2ccc(F)cc2)cc1` ?
Solution: false (0)

Exercise: Which outcome did this test record for the molecule `CN1CCN(c2ccc(Nc3nc(NCCCNS(=O)(=O)c4ccc(Cl)cc4)c4sccc4n3)cc2)CC1` ?
Solution: true (1)

Exercise: Which outcome did this test record for the molecule `COc1cc2oc(-c3cccc(NC(=O)[C@@H](N)C(C)C)c3)cc(=O)c2c(OC)c1OC` ?
Solution: false (0)

Exercise: Which outcome did this test record for the molecule `CCc1cc(OC(=O)N2CCN(CCC(C)(COC(C)(C)C)COC(C)(C)C)CC2)ccc1Nc1cc(-c2ccc(-n3cccn3)cc2)[nH]n1` ?
Solution: false (0)

Exercise: Which outcome did this test record for the molecule `Cc1ccccc1N1CCN(C2=C(Cl)C(=O)c3ncccc3C2=O)CC1` ?
Solution: false (0)

Exercise: Which outcome did this test record for the molecule `Brc1cccc(-c2cc(-c3ccc4c(c3)OC=CO4)[nH]n2)c1` ?
Solution: false (0)

Exercise: Which outcome did this test record for the molecule CC[C@]12CC(C(=O)OC)=C3Nc4ccccc4[C@@]34CCN(C14)[C@@H]1c3cc4c(cc3O[C@@H]1[C@H]2O)NC1=C(C(=O)OC)C[C@@]2(CC)C3N(CC[C@@]143)C[C@H]1O[C@H]12 (stereo partly specified) ?
Solution: false (0)

Exercise: Which outcome did this test record for the molecule `N#Cc1c(-c2ccc(Br)cc2)cc(-c2c[nH]c3ccccc23)nc1N` ?
Solution: false (0)

Exercise: Which outcome did this test record for the molecule `CN(C)CC(=O)Nc1nc(-c2cccc(NS(=O)(=O)c3cccc4c(N(C)C)cccc34)c2)cs1` ?
Solution: false (0)

Exercise: Which outcome did this test record for the molecule `O=[N+]([O-])c1ccc(NC(=S)NNC(=S)Nc2ccc(Br)cc2)cc1` ?
Solution: false (0)

Exercise: Which outcome did this test record for the molecule `Cc1ccc(NC2=C(Cl)C(=O)c3nc(C)ccc3C2=O)c(C)c1` ?
Solution: true (1)

Exercise: Which outcome did this test record for the molecule `COc1ccc(/C=N/N=C(/c2ccccc2)c2ccc3nc(-c4ccc(Cl)cc4)[nH]c3c2)cc1` ?
Solution: false (0)

Exercise: Which outcome did this test record for the molecule `COc1ccc(-c2cc(-c3ccc(N(C)C)cc3)n3c(n2)nc2ccccc23)cc1` ?
Solution: true (1)

Exercise: Which outcome did this test record for the molecule `C#Cc1nc(/C=C/CCCCCCC(=O)NO)cs1` ?
Solution: false (0)

Exercise: Which outcome did this test record for the molecule COc1ccc(C2c3[nH]c4ccc(Cl)cc4c3CCN2c2oc(CO)nc2C#N)cc1 (stereo unspecified) ?
Solution: false (0)

Exercise: Which outcome did this test record for the molecule `C=C(C)[C@@H]1CC[C@]2(C(=O)O)CC[C@]3(C)[C@H](CC[C@@H]4[C@@]5(C)C/C(=C/c6ccccn6)C(=O)C(C)(C)[C@@H]5CC[C@]43C)[C@@H]12` ?
Solution: false (0)

Exercise: Which outcome did this test record for the molecule C#CCOc1ccccc1C(OC(=O)c1ccccc1)C(=O)NC(C)(C)C(C)(C)C (stereo unspecified) ?
Solution: false (0)

Exercise: Which outcome did this test record for the molecule `COc1ccc(/C=N/NC(=O)CSc2nc(-c3cnccn3)cc(-c3cccs3)c2C#N)cc1` ?
Solution: false (0)

Exercise: Which outcome did this test record for the molecule `Fc1cccc(Cl)c1/C=N/Nc1nc(N/N=C/c2c(F)cccc2Cl)nc(N2CCCCC2)n1` ?
Solution: true (1)

Exercise: Which outcome did this test record for the molecule `CCOP(=O)(OCC)OC[C@]12CCC(C)(C)C[C@H]1C1=CC[C@@H]3[C@@]4(C)CC[C@H](OP(=O)(OCC)OCC)C(C)(C)[C@@H]4CC[C@@]3(C)[C@]1(C)CC2` ?
Solution: false (0)

Exercise: Which outcome did this test record for the molecule `Cc1ccc(S(=O)(=O)NCCCNc2nccc(-c3[nH]c(-c4ccccc4)nc3-c3ccc(F)c(O)c3)n2)cc1` ?
Solution: false (0)

Exercise: Which outcome did this test record for the molecule `CCCCc1nc2c(N)nc3ccccc3c2n1Cc1cccc(CN)c1` ?
Solution: false (0)

Exercise: Which outcome did this test record for the molecule `Cc1cc(Br)ccc1-n1cc(C#N)c(N)c1C(=O)c1ccc(Br)cc1` ?
Solution: false (0)

Exercise: Which outcome did this test record for the molecule `CCN(CC)CCOc1ccc(C(=C(c2ccccc2)C2CCCC2)c2ccc(OCCN(CC)CC)cc2)cc1` ?
Solution: true (1)

Exercise: Which outcome did this test record for the molecule `N#Cc1cnc2ccc(-c3cnc4n[nH]nc4c3)cc2c1N1CCc2cc(F)c(Cl)cc21` ?
Solution: true (1)

Exercise: Which outcome did this test record for the molecule `C#Cc1nc(C(=O)NCCCCCCC(=O)NO)cs1` ?
Solution: true (1)

Exercise: Which outcome did this test record for the molecule `Cc1cccc(N2CCN(C3=C(Cl)C(=O)c4ncccc4C3=O)CC2)c1` ?
Solution: false (0)

Exercise: Which outcome did this test record for the molecule `COc1cc(C(=O)c2cc(C(C)=O)c3ccc(C)cn23)cc(OC)c1OC` ?
Solution: false (0)

Exercise: Which outcome did this test record for the molecule `O=C(/C=C/C=C/c1csc(Br)n1)NO` ?
Solution: false (0)

Exercise: Which outcome did this test record for the molecule `COc1ccc2sc(NC(=O)CCCCCCNC(=O)C(O)(O)C(F)(F)F)nc2c1` ?
Solution: true (1)

Exercise: Which outcome did this test record for the molecule `Brc1ccc(-c2cc(-c3ccc4c(c3)OCCO4)n[nH]2)s1` ?
Solution: false (0)
